# Assay Text: amyloid nucleation score (Sup35N fusion, yeast selection) (log enrichment); library NNK1; higher = more nucleation; inactive = no reads after selection;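 further: zero at mode of non-aggregating sequences after 7 days selection at 30°C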
Measured Metric: amyloid nucleation score
Numbers only.

PTDMPGHVTMSRGSCLEWVL 0.355
FLMGSYMFTTTVQISHDLMW -0.354
SRNAVVVVVQTYMDMTSCNT 6.37
YRFRWRNWSMWVSHKAHKAS 0.851
IAVPRRQPINLSN 0.668
SWIEKDHFQVGARYRMSS -0.376

Lab note: each sequence below needs its amyloid nucleation score filled in.
1. ERLYLSRYSMVIFVGLMCKS
2. PKCLNESMVGRRWLAIMGRV

Output line:
1. -0.145
2. 0.328

---

# Assay Text: amyloid nucleation score (Sup35N fusion, yeast selection) (log enrichment); library NNK1; higher = more nucleation; inactive = no reads after selection
Category | rule: reported amyloid nucleation score within range, see bin 0: < -0.3; bin 1: ≥ -0.3 and < 0.6; bin 2: ≥ 0.6

# example entries with known answers
IYGTGFIWMFSVPKLERG bin 0
SSDEFVDGSLIWYHLFSPCR bin 0
NDWRCSKGLLGFWRGGTRQA bin 1
NLGVKDLNTI bin 0
QNPRIKFIQHVPIYNEGTLP bin 2

Input line: Band of "GVNCKYVVLKNNVIWTHCLR" ?
Output line: bin 2

Input line: Classify this substance: "RNLQILQDYKPSSNQCGRKE"
Output line: bin 0

Input line: GET /class?item= "GIQLTVFGLLLCFGTGLKVF"
Output line: bin 1

Input line: Could you tell me which band "TAFLGTSGG" belongs to?
Output line: bin 1

Input line: State the class of the substance shown: "FIFIDMRRSWDISVKDTRST"
Output line: bin 2

Input line: Which class is correct for the following substance? "YTWIEHAWSS"
Output line: bin 1

Input line: Hey, which category is "IINERSANLYDFVVIDRSWL" in, do you know?
Output line: bin 0

Input line: Exam item: assign "GWENSLYNFFCLW" to the correct category.
Output line: bin 1

---

# Assay Text: amyloid nucleation score (Sup35N fusion, yeast selection) (log enrichment); library NNK2; higher = more nucleation; inactive = no reads after selection
Measured Metric: amyloid nucleation score

Reference set (6 entries):
FGMTRRETWNLSGCESITCT 0.593
MSPNLIMMHHCH 0.094
CSLLGNFYILGYWATFMASD -1.57
FLKCNLTVDLIVMMKNIFSY 1.02
FLRILFFGLGVMLQIRFFVH -0.569
HPDDTMKFSSRTHITTQTDR 0.908

Quick one: give me amyloid nucleation score for each item below, same order please.
1. HFITCFLDRHGALVCYCSES
2. WSLSYYISVDEDYGSRGVTM
3. RVSTNGFVSQPMRWYVIVDS
4. VNIILASMHVLLDGCS
5. TFSFFATVDQMFCCVGRCEW

Output line:
4.76
-1.6
-0.142
-1.08
8.13

Provide the reported amyloid nucleation score of each entry below, same order.
1. MNGVLFMCFIH
2. VYLRMSFYYGKRP

Output line:
1: 3.86; 2: 4.12

For every item in the list below, what is its measured amyloid nucleation score?
1. VWVRIQMWYDIMSSASQLYR
2. YRPAWMDWF
3. IHDALTRCEWGSVSPRSSGC
4. FKRRCVDYNFSVVILLH
5. KDHRSLSGRDMFRGTLVVVM
6. TVRVST

Output line:
[0.446, 1.78, 0.682, -2.03, 0.328, -0.004]
